Test system: RPMI-8226 leukemia
Experiment: NCI tumour cell line growth inhibition, 48 h; in the data active = GI50 below about 0.43 µM; inactive = the rest
The reply should be one of these categories: Y for active, N for inactive

Completed entries (count: 3):
compound=CCCCCCCCCCCCCC[n+]1ccc(C)cc1 class=Y
compound=COc1ccc(-c2csc(NC(=O)CN3CCN(c4cc5c(cc4F)c(=O)c(C(=O)O)cn5C4CC4)CC3)n2)cc1 class=N
compound=O=C1CC/C(=C/COc2cc(=O)oc3ccccc23)O1 class=N

Query: Called result for CCCCOC1OC(COC(=O)C(C)C)C(OC(=O)C(C)C)C(O)C1OC1OC(C)C(OC(=O)CCC)C(OC(=O)C(C)C)C1O (stereo not given)
Reply: N

Query: Any idea what this test logged for "CC(=O)O[C@H]1CC[C@@]2(C)C(=C/C(=N/OCCN3CCCC3)[C@H]3[C@@H]4CC[C@H](OC(C)=O)[C@@]4(C)CC[C@@H]32)C1" ?
Reply: N

Origin of the recorded values: PubChem BioAssay (NCI)
